- TEST DETAILS: Selectivity index, ratio of EC50 for human HeLa cells to EC50 for bloodstream form of Trypanosoma brucei brucei 427
- Format: toxicity, cell-based
- CONDITION SUMMARY: read-out: Ratio EC50
READOUT NAME: selectivity ratio

Here's what some known entries look like.
O=C(Nc1ccc(O)cc1)c1ccc([N+](=O)[O-])o1	> 50
CCCCNC(=O)c1cc(CC)sc1NC(=O)c1ccc([N+](=O)[O-])o1	> 60
CCc1cc(C(=O)NCCO)c(NC(=O)c2ccc([N+](=O)[O-])o2)s1	> 253

# selectivity ratio of CC1CS(=O)(=O)CCN1/N=C/c1ccc([N+](=O)[O-])o1 (stereo not given) = 38

Record COc1ccc(NC(=O)c2ccc([N+](=O)[O-])o2)cc1 , field selectivity ratio: > 261

----------
Reported selectivity ratio is given for each of the following molecules.
- TEST DETAILS: Selectivity index, ratio of EC50 for human HeLa cells to EC50 for bloodstream form of Trypanosoma brucei brucei 427
- Type: toxicity, cell-based
- CONDITION SUMMARY: read-out: Ratio EC50

Sample answers from the record:
O=C(Nc1cccc(Br)c1)c1ccc([N+](=O)[O-])o1	> 192
COc1cc(NC(=O)c2ccc([N+](=O)[O-])o2)cc(C(F)(F)F)c1	> 752
O=C(NCc1ccccc1)c1ccc([N+](=O)[O-])o1	> 732
O=C(Nc1ccc(O)c(C(F)(F)F)c1)c1ccc([N+](=O)[O-])o1	> 9
CCc1cc(C(N)=O)c(NC(=O)c2cccc([N+](=O)[O-])c2)s1	> 8

Now look at this one.
selectivity ratio in this record for COc1ccc(NC(=O)c2ccc([N+](=O)[O-])o2)cc1C(F)(F)F : > 2560

----------
- Tested on: Trypanosoma brucei brucei
- TEST DETAILS: Trypanocidal activity against bloodstream form of Trypanosoma brucei brucei 427 after 72 hrs by Alamar blue assay
- Format: functional, organism-based
- CONDITION SUMMARY: Trypanosoma brucei, 427, 72 h
pEC50 values by entry
Keep in mind that pEC50 stands for -log10 of concentration in molar terms.

The following compounds have reported results that may help.
CCc1cc(C(=O)OC)c(NC(=O)c2ccc([N+](=O)[O-])o2)s1	7.68
C=CCOc1ccc(N(CC=C)C(=O)c2ccc([N+](=O)[O-])o2)cc1C(F)(F)F	5.66
O=C(Nc1ccc(O)cc1)c1ccc([N+](=O)[O-])o1	6.40
COC(=O)c1ccc([N+](=O)[O-])o1	4.17
O=C(Nc1ccc(O)c(C(F)(F)F)c1)c1ccc([N+](=O)[O-])o1	5.66

pEC50 recorded for this compound, O=C(Nc1cccc(Br)c1)c1ccc([N+](=O)[O-])o1 , is 6.98

CCCCNC(=O)c1cc(CC)sc1NC(=O)c1ccc([N+](=O)[O-])o1 yielded pEC50 of 6.47

pEC50 reported for this compound COc1cccc(NC(=O)c2ccc([N+](=O)[O-])o2)c1 : 7.23

pEC50 measured on O=C(Nc1ccc(C(F)(F)F)cc1)c1ccc([N+](=O)[O-])o1 = 6.90

The compound listed as O=C(NC1CCCCC1)c1ccc([N+](=O)[O-])o1 has a reported pEC50 of 6.64

Entry under test: CCc1cc(C(N)=O)c(NC(=O)c2cccc([N+](=O)[O-])c2)s1 . Its pEC50 was 5.59
